- assaySummary: Stability in human blood plasma
- assaySetup: 10 μM in pooled human blood plasma, incubated 4 hours at 37° C.
outcomeMeasure: Amount of substance in the sample, % (stability in human blood plasma) (%)

C=CC(=O)N1CCC[C@@H](n2nc(-c3ccc(C(=O)Nc4ncccc4F)cc3)c3cncc(Cl)c32)C1; 84.5
C=CC(=O)N1CC[C@H](n2nc(-c3ccc(Oc4ccncc4)cc3)c3cncc(Cl)c32)C1; 87.2
C=CC(=O)N1CCC[C@@H](n2nc(-c3ccc(Oc4cccnc4C#N)cc3)c3cncc(F)c32)C1; 93.3
C=CC(=O)N1CCC[C@@H](n2nc(-c3ccc(Oc4ccncc4C(N)=O)cc3)c3cncc(Cl)c32)C1; 84.7

* * *

Reported CC50 (HepG2)/IC50 (Mino) values for a set of molecules
- System: HepG2 cells (hepatocellular carcinoma)
- assaySummary: General cytotoxicity on HepG2 cells (CC50; therapeutic index CC50 HepG2/IC50 Mino)
- Type: cell-based
- assaySetup: Table 10; therapeutic index
Enter a number only.

A selection of reference data follows.
C=CC(=O)N1CCC[C@@H](n2nc(-c3ccc(Oc4cccnc4C#N)cc3)c3cncc(Cl)c32)C1 [BCD-BTK-218]; 23.92
C=CC(=O)N1CCC[C@@H](n2nc(-c3ccc(Oc4cccnc4C#N)cc3)c3c(N)ncc(Cl)c32)C1 [BCD-BTK-236]; 3.03
C=CC(=O)N1CCC[C@@H](n2nc(-c3ccc(C(=O)Nc4cc(C(F)(F)CCC)ccn4)cc3)c3c(N)ncc(Cl)c32)C1 [BCD-BTK-254]; 4.18
C=CC(=O)N1CCC[C@@H](n2nc(-c3ccc(Oc4cncc(C(N)=O)c4)cc3)c3cncc(Cl)c32)C1 [BCD-BTK-222]; 2.60
C=CC(=O)N1CCC[C@@H](n2nc(-c3ccc(Oc4ccncc4C#N)cc3)c3cncc(Cl)c32)C1 [BCD-BTK-202]; 4.10

Task: Could you please provide reported CC50 (HepG2)/IC50 (Mino) for C=CC(=O)N1CCC[C@@H](n2nc(-c3ccc(C(=O)Nc4ncccc4F)cc3)c3cncc(Cl)c32)C1 [BCD-BTK-226] ? Thanks!
Result: 3.19

Task: For the molecule CC#CC(=O)N1CCC[C@@H](n2nc(-c3ccc(C(=O)Nc4ccccn4)cc3)c3c(N)ncc(Cl)c32)C1 [BCD-BTK-295] , give its reported CC50 (HepG2)/IC50 (Mino).
Result: 16.23

Task: Return the recorded CC50 (HepG2)/IC50 (Mino) value; entry: CC#CC(=O)N1CCC[C@H]1Cn1nc(-c2ccc(Oc3ccncc3)cc2)c2cncc(Cl)c21 [BCD-BTK-259]
Result: 2.91

Task: Quote CC50 (HepG2)/IC50 (Mino) reported for C=CC(=O)N1CCC[C@@H](n2nc(-c3ccc(C(=O)Nc4cccc(F)n4)cc3)c3c(N)ncc(Cl)c32)C1 [BCD-BTK-250] please.
Result: 5.13

* * *

- assaySummary: Permeability through the monolayer of Caco-2 cells
- Type: in vitro ADME
- assaySetup: human, B→A, 2 h at 37° C.
- Description: Assessment of permeability through the monolayer of Caco-2 cells allows to evaluate the ability of the candidate compounds to penetrate through biological membranes by active and passive transport. […] We used gradient elution (1 mL/min flow rate). We determined the areas of peaks corresponding to the compounds. On the basis of peak areas in the calibration standards we determined the concentration of compound in the initial solution and in the samples from the wells of the upper and lower chambers. […]
outcomeMeasure: Papp B→A at 2 h, 10 μM (×10⁻⁶ cm/s)

For orientation, consider the following solved cases.
C=CC(=O)N1CCC[C@@H](n2nc(-c3ccc(C(=O)Nc4ccccn4)cc3)c3c(N)ncc(C#N)c32)C1 [BCD-BTK-234]; 9.2
C=CC(=O)N1CCC[C@@H](n2nc(-c3ccc(C(=O)Nc4ncccc4F)cc3)c3cncc(Cl)c32)C1 [BCD-BTK-226]; 5.5

A = C=CC(=O)N1CCC[C@@H](n2nc(-c3ccc(Oc4ccncc4C#N)cc3)c3cncc(C#N)c32)C1 [BCD-BTK-213]
B = C=CC(=O)N1CCC[C@@H](n2nc(-c3ccc(Oc4ccncc4C#N)cc3)c3cncc(F)c32)C1 [BCD-BTK-217]
C = C=CC(=O)N1CCC[C@@H](n2nc(-c3cnc(C(=O)Nc4cc(C(F)(F)CC)ccn4)nc3)c3cncc(Cl)c32)C1 [BCD-BTK-293]
D = C=CC(=O)N1CCC[C@@H](n2nc(-c3ccc(Oc4ccncc4C#N)cc3)c3c(N)ncc(Cl)c32)C1 [BCD-BTK-232]
E = C=CC(=O)N1CCC[C@@H](n2nc(-c3ccc(Oc4ccncc4)cc3)c3cncc(Cl)c32)C1 [BCD-BTK-125]
Task: // ranking: key=Papp B→A at 2 h, 10 μM, reverse=True Return value: ordered labels per request.
Result: B, E, A, D, C

* * *

- targetOrTestSystem: recombinant Btk kinase enzyme (Homo sapiens, UniProt Q06187)
- Construct: purchased SignalChem B10-10H
- Sequence (Q06187 whole entry): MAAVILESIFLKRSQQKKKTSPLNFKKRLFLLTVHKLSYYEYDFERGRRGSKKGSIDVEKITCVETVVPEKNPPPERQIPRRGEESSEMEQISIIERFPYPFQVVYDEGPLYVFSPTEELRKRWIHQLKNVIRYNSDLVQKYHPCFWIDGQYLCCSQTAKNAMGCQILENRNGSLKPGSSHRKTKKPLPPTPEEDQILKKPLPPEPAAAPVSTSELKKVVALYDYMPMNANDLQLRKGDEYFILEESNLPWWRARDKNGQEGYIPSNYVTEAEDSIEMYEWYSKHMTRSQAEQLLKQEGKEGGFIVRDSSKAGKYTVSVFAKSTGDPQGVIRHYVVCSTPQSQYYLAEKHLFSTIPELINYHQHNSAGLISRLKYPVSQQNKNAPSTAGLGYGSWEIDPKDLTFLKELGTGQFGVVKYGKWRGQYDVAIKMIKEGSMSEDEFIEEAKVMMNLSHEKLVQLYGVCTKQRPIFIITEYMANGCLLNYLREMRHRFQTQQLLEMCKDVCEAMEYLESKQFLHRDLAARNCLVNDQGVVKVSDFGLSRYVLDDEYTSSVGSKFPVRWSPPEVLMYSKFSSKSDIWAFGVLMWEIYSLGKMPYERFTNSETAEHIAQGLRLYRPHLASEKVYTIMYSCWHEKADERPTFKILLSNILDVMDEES
- assaySummary: In vitro inhibition of Btk kinase activity (ADP-Glo)
- Type: biochemical
- assaySetup: Table 8; ADP-Glo; read-out: IC50 kinase BTK
pIC50: −log10 of the molar value.
outcomeMeasure: pIC50

Please review the entries below; each comes with its answer.
C=CC(=O)N1CC[C@@H](n2nc(-c3ccc(Oc4ccncc4)cc3)c3cncc(Cl)c32)C1 [BCD-BTK-272]; 7.26
C=CC(=O)N1CCC[C@@H](n2nc(-c3ccc(C(=O)Nc4cc(C(F)(F)F)ccn4)cc3)c3c(N)ncc(Cl)c32)C1 [BCD-BTK-251]; 8.57
C=CC(=O)N1CCC[C@@H](n2nc(-c3ccc(C(=O)Nc4cc(C(F)(F)CCC)ccn4)cc3)c3cncc(F)c32)C1 [BCD-BTK-247]; 7.83
C=CC(=O)N1CCC[C@@H](n2nc(-c3ccc(C(=O)Nc4ccccn4)cc3)c3cncc(F)c32)C1 [BCD-BTK-243]; 7.53
C=CC(=O)N1CCC[C@@H](n2nc(-c3ccc(C(=O)Nc4ccccn4)cc3)c3c(N)ncc(OC)c32)C1 [BCD-BTK-240]; 8.65

A = C=CC(=O)N1CC[C@H](n2nc(-c3ccc(C(=O)Nc4ccccn4)cc3)c3cncc(Cl)c32)C1 [BCD-BTK-273]
B = C=CC(=O)N1CCC[C@@H](n2nc(-c3ccc(C(=O)Nc4ccccn4)cc3)c3c(N)nccc32)C1 [BCD-BTK-242]
Task: Of the two listed items, A and B , which carries the larger pIC50 figure? State the label of the item chosen.
Result: B
(B: 8.75, A: 7.58)

* * *

- assaySummary: Stability in human blood plasma
- assaySetup: 10 μM in pooled human blood plasma, incubated 4 hours at 37° C.
outcomeMeasure: Amount of substance in the sample, % (stability in human blood plasma) (%)

C=CC(=O)N1CCC[C@@H](n2nc(-c3cnc(-n4ccc(=O)c(C(N)=O)c4)nc3)c3cncc(Cl)c32)C1; 82.6
C=CC(=O)N1CCC[C@@H](n2nc(-c3ccc(C(=O)Nc4ccccn4)cc3)c3cncc(C#N)c32)C1; 85.2
C=CC(=O)N1CCC[C@@H](n2nc(-c3ccc(Oc4cccnc4C(N)=O)cc3)c3cncc(Cl)c32)C1; 90.2
C=CC(=O)N1CCC[C@@H](n2nc(-c3cnc(C(=O)Nc4ccccn4)nc3)c3cncc(Cl)c32)C1; 83.5

* * *

- assaySummary: Chemical stability in artificial gastric fluid (SGF without enzymes)
- assaySetup: 10 μM in SGF without enzymes, pH=1.4, 37° C.
outcomeMeasure: Amount of substance in the sample in % (chemical stability) (%)

C=CC(=O)N1CCC[C@@H](n2nc(-c3ccc(Oc4ccncc4)cc3)c3cc(O)cc(C#N)c32)C1 [BCD-BTK-137]; 94.3
C=CC(=O)N1CCC[C@@H](n2nc(-c3ccc(C(=O)Nc4ccccn4)cc3)c3c(N)ncc(C#N)c32)C1 [BCD-BTK-234]; 100
C=CC(=O)N1CCC[C@@H](n2nc(-c3cnc(C(=O)Nc4cc(C(F)(F)CC)ccn4)nc3)c3cncc(Cl)c32)C1 [BCD-BTK - 293]; 98.4
C=CC(=O)N1CCC[C@@H](n2nc(-c3ccc(C(=O)Nc4ccccn4)cc3)c3c(N)ncc(Cl)c32)C1 [BCD-BTK-238]; 100
CC#CC(=O)N1CC[C@@H](n2nc(-c3ccc(Oc4ccncc4)cc3)c3cncc(Cl)c32)C1 [BCD-BTK-265]; 94.8
C=CC(=O)N1CCC[C@@H](n2nc(-c3ccc(Oc4cncc(C(N)=O)c4)cc3)c3cncc(F)c32)C1 [BCD-BTK-274]; 100
C=CC(=O)N1CCC[C@@H](n2nc(-c3ccc(Oc4ccncc4)cc3)c3cncc(C(N)=O)c32)C1 [BCD-BTK-140]; 99.4
CC#CC(=O)N1CC[C@H](n2nc(-c3ccc(C(=O)Nc4ccccn4)cc3)c3cncc(Cl)c32)C1 [BCD-BTK-271]; 100
C=CC(=O)N1CCC[C@@H](n2nc(-c3ccc(C(=O)Nc4cc(C(F)(F)CC)ccn4)cc3)c3cncc(F)c32)C1 [BCD-BTK -214]; 100
C=CC(=O)N1CCC[C@@H](n2nc(-c3ccc(C(=O)Nc4ccc(F)cn4)cc3)c3cncc(F)c32)C1 [BCD-BTK-244]; 100
C=CC(=O)N1CCC[C@@H](n2nc(-c3ccc(-n4ccc(=O)cc4)nc3)c3c(N)ncc(Cl)c32)C1 [BCD-BTK-76]; 99.7
C=CC(=O)N1CCC[C@@H](n2nc(-c3ccc(Oc4ccncc4)cc3)c3cncc(Cl)c32)C1 [BCD-BTK - 125]; 100
C=CC(=O)N1CCC[C@@H](n2nc(-c3ccc(C(=O)Nc4cc(C(F)(F)CCC)ccn4)cc3)c3cncc(C#N)c32)C1 [BCD-BTK-268]; 99.3
C=CC(=O)N1CCC[C@H]1Cn1nc(-c2ccc(Oc3ccncc3)cc2)c2cncc(Cl)c21 [BCD-BTK-263]; 100
CC#CC(=O)N1CC(Cn2nc(-c3ccc(C(=O)Nc4ccccn4)cc3)c3cncc(Cl)c32)C1 [BCD-BTK-267]; 100
C=CC(=O)N1CCC[C@@H](n2nc(-c3ccc(C(=O)Nc4ncccc4F)cc3)c3cncc(Cl)c32)C1 [BCD-BTK-226]; 100
C=CC(=O)N1CCC[C@@H](n2nc(-c3ccc(C(=O)Nc4ccc(F)cn4)cc3)c3cncc(C#N)c32)C1 [BCD-BTK-227]; 100
C=CC(=O)N1CCC[C@@H](n2nc(-c3ccc(-n4ccc(=O)c(C#N)c4)cc3)c3cncc(Cl)c32)C1 [BCD-BTK -208]; 100
C=CC(=O)N1CCC[C@@H](n2nc(-c3ccc(-n4ccc(=O)cc4)cc3F)c3cncc(Cl)c32)C1 [BCD-BTK -204]; 100
C=CC(=O)N1CCC[C@H](Cn2nc(-c3ccc(C(=O)Nc4ccccn4)cc3)c3cncc(Cl)c32)C1 [BCD-BTK-290]; 100
C=CC(=O)N1CCC[C@@H](n2nc(-c3ccc(Oc4cncc(C(N)=O)c4)cc3)c3cncc(Cl)c32)C1 [BCD-BTK-222]; 100
C=CC(=O)N1CC[C@@H](n2nc(-c3ccc(C(=O)Nc4ccccn4)cc3)c3cncc(Cl)c32)C1 [BCD-BTK-275]; 100
CC#CC(=O)N1CCC[C@H](Cn2nc(-c3ccc(C(=O)Nc4ccccn4)cc3)c3cncc(Cl)c32)C1 [BCD-BTK-283]; 100
C=CC(=O)N1CCC[C@@H](n2nc(-c3ccc(C(=O)Nc4cc(C(F)(F)F)ccn4)cc3)c3cncc(C#N)c32)C1 [BCD-BTK-221]; 91.3
C=CC(=O)N1CCC[C@@H](n2nc(-c3ccc(C(=O)Nc4ccccn4)cc3)c3cncc(F)c32)C1 [BCD-BTK-243]; 99.6
C=CC(=O)Nc1cc2c(-c3ccc(-n4ccc(=O)cc4)cc3)nn([C@@H]3CCCN(C(=O)C=C)C3)c2nc1C [BCD-BTK-117]; 99.7
C=CC(=O)N1CCC[C@@H](n2nc(-c3ccc(Oc4ccncc4C#N)cc3)c3cncc(F)c32)C1 [BCD-BTK -217]; 95.3
C=CC(=O)N1CCC[C@@H](n2nc(-c3ccc(C(=O)Nc4cc(C(F)(F)F)ccn4)cc3)c3cncc(F)c32)C1 [BCD-BTK-245]; 100
